Tested on: Ba/F3 cells expressing EGFR mutations
TEST DETAILS: Cell proliferation assay, Ba/F3 cells expressing EGFR mutations (CellTiter-Glo, 72 hours)
Type: cell-based
CONDITION CONTEXT: Mus musculus, BaF3, 72 h, EGFR DEL19-T790M, CellTiter-Glo, read-out: DEL19-T790M GI50
QUANTITY MEASURED: GI50 (µM)

Record excerpt, results attached:
[
  {
    "RECORD SMILES": "C[C@@H]1CCCOc2c(cnn2C)-c2cc(cn(C)c2=O)C(=O)Nc2nc3ccc(N4CCN(CC(F)(F)F)CC4)cc3n2C1",
    "GI50 [µM]": 0.049
  },
  {
    "RECORD SMILES": "C[C@@H]1CCCOc2c(cnn2C)-c2cc(cn(C)c2=O)C(=O)Nc2nc3ccc(N4CCN(C)CC4)cc3n2C1",
    "GI50 [µM]": 0.0092
  },
  {
    "RECORD SMILES": "Cn1ncc2c1OCCN1CC3CCC(CC3)(C1)n1c(nc3ccccc31)NC(=O)c1cc-2c(=O)n(C)c1",
    "GI50 [µM]": 0.078
  }
]

(I) C[C@@H]1CCCOc2c(cnn2C)-c2cc(cn(C)c2=O)C(=O)Nc2nc3ccc(N(C)CCN(C)C)cc3n2C1
(II) CCn1cc2cc(c1=O)-c1cnn(C)c1OCCC[C@@H](C)Cn1c(nc3ccc(N4CCN(C)CC4)cc31)NC2=O
(III) CCN1CCOc2c(cnn2C)-c2cc(cn(C)c2=O)C(=O)Nc2nc3ccccc3n2C(C)(C)C1
## Input Given 3 molecules, produce a descending ranking by GI50. Please respond with the labels ordered as the question requires.
## Output III, II, I

* * *

ASSAY TARGET: EGFR Exon19Del (Homo sapiens, UniProt P00533, DEL746-750)
Construct: purchased Carna Bio
Sequence (P00533 with tags, fused parts or gaps DEL746-750 limits assumed): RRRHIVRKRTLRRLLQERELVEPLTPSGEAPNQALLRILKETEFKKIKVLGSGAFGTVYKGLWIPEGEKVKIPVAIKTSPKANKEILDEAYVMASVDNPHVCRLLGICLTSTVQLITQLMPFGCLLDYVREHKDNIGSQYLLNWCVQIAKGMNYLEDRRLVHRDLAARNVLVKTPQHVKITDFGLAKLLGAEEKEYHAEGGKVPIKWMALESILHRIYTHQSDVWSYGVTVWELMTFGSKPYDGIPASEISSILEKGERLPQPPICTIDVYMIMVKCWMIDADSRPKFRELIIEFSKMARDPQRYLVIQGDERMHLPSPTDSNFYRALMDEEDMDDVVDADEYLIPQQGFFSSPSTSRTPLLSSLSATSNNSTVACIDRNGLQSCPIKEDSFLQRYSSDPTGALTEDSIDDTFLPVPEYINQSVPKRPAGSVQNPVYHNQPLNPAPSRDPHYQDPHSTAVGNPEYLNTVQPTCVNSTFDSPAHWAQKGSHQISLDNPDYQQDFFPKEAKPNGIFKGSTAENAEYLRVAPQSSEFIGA
TEST DETAILS: Inhibition of EGFR Exon19Del biochemical enzymatic activity (HTRF)
CONDITION CONTEXT: EGFR Exon19Del, 1 mM ATP, 1 h at room temperature, read-out: IC50 @Del19
QUANTITY MEASURED: IC50 (nM)

[
  {
    "MOLECULE": "Cc1cc2cc(n1)-c1cnn(C)c1OCCN1CC3CCC(C3)(C1)n1c(nc3ccccc31)NC2=O (single isomer, unassigned) [Example B8A]",
    "IC50 [nM]": 729
  },
  {
    "MOLECULE": "Cc1cc2cc(n1)-c1cnn(C)c1OCCN1CC3CCC(CC3)(C1)n1c(nc3ccc(N4CCC5(CCN(C)CC5)C4)cc31)NC2=O [Example B38]",
    "IC50 [nM]": 38
  },
  {
    "MOLECULE": "Cc1cc2cc(n1)-c1cnn(C)c1OCCN1CC3CCC(C3)(C1)n1c(nc3ccc(N4CCC5(CCN(C)CC5)C4)cc31)NC2=O (single isomer, unassigned) [Example B51B]",
    "IC50 [nM]": 6.1
  },
  {
    "MOLECULE": "Cc1cc2cc(n1)-c1cnn(C)c1OCCN1CC3CCC(C3)(C1)n1c(nc3ccc(N4CCN(C)CC4)cc31)NC2=O (single isomer, unassigned) [Example B9A]",
    "IC50 [nM]": 432
  },
  {
    "MOLECULE": "Cc1cc2cc(n1)-c1cnn(C)c1OCCN1CC3CCC(C3)(C1)n1c(nc3ccc(N4CCC5(CC4)CCN5C)cc31)NC2=O (single isomer, unassigned) [Example B54B]",
    "IC50 [nM]": 4.9
  }
]

(1) COCCN(C)c1ccc2nc3n(c2c1)C12CCC(CN(CCOc4c(cnn4C)-c4cc(cc(C)n4)C(=O)N3)C1)C2 (single isomer, unassigned) [Example B46B]
(2) Cc1cc2cc(n1)-c1cnn(C)c1OCCN1CC3CCC(C3)(C1)n1c(nc3ccc(N4CCOCC4)cc31)NC2=O (single isomer, unassigned) [Example B10B]
(3) Cc1cc2cc(n1)-c1cnn(C)c1OCCN1CC3CCC(C3)(C1)n1c(nc3ccc(N4CCN(C5COC5)CC4)cc31)NC2=O (single isomer, unassigned) [Example B58B]
(4) Cc1cc2cc(n1)-c1cnn(C)c1OCCN1CC3CCC(C3)(C1)n1c(nc3ccc(N4CC[C@H](N(C)C)C4)cc31)NC2=O (single isomer, unassigned) [Example B41B]
## Input Given 4 molecules, produce a descending ranking by IC50. Please respond with the labels ordered as the question requires.
## Output 2, 1, 3, 4
